Ref: paper PMC4402530

target: BLM642-1290 S1121A (human, UniProt P54132 642-1290, S1121A)
Sequence (P54132 642-1290 S1121A): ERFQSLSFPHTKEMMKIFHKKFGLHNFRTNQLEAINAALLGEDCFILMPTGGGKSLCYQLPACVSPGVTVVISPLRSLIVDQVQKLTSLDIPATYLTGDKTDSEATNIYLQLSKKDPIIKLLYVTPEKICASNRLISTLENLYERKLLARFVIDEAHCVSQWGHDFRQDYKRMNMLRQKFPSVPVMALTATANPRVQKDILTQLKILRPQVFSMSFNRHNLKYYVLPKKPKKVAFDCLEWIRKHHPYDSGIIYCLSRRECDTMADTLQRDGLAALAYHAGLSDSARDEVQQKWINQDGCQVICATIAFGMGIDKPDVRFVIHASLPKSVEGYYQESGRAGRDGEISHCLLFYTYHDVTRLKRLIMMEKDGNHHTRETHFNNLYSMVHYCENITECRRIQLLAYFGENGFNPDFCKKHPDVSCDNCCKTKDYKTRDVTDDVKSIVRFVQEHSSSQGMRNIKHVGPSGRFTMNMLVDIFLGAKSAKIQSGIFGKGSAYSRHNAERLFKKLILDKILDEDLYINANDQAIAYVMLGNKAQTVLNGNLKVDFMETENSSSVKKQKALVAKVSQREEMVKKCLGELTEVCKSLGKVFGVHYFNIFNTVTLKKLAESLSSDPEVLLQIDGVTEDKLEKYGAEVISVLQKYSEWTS
test-method-notes: fluorescence anisotropy; 1 mM MgCl2, no ATP listed; 25 mM Tris-HCl pH 7.5 (last digit split in text), 100 mM NaCl, 1 mM MgCl2, 3 mM DTT, 5 nM DNA, 25 C, 5 min equilibration; Hill fit
test-parameters: protein: recombinant; label: 3' fluorescein on F18; blunt
measured-attribute: Kd (nM)

{"binder": "F18/F18 bis dsDNA (18 bp) (dsDNA) DNA 1: GCCTCGCTGCCGTCGCCA DNA 2: TGGCGACGGCAGCGAGGC", "recorded-result": 14.9}
